Could you please report measured IC50 for the items listed next?
target: PI3Kγ (p110γ) Recombinant Human Protein (Homo sapiens (Human), UniProt P48736); assay: PI3K-γ Scintillation Proximity Assay; details: read-out: PI3K-gamma SPA IC50
Sequence (P48736 whole entry): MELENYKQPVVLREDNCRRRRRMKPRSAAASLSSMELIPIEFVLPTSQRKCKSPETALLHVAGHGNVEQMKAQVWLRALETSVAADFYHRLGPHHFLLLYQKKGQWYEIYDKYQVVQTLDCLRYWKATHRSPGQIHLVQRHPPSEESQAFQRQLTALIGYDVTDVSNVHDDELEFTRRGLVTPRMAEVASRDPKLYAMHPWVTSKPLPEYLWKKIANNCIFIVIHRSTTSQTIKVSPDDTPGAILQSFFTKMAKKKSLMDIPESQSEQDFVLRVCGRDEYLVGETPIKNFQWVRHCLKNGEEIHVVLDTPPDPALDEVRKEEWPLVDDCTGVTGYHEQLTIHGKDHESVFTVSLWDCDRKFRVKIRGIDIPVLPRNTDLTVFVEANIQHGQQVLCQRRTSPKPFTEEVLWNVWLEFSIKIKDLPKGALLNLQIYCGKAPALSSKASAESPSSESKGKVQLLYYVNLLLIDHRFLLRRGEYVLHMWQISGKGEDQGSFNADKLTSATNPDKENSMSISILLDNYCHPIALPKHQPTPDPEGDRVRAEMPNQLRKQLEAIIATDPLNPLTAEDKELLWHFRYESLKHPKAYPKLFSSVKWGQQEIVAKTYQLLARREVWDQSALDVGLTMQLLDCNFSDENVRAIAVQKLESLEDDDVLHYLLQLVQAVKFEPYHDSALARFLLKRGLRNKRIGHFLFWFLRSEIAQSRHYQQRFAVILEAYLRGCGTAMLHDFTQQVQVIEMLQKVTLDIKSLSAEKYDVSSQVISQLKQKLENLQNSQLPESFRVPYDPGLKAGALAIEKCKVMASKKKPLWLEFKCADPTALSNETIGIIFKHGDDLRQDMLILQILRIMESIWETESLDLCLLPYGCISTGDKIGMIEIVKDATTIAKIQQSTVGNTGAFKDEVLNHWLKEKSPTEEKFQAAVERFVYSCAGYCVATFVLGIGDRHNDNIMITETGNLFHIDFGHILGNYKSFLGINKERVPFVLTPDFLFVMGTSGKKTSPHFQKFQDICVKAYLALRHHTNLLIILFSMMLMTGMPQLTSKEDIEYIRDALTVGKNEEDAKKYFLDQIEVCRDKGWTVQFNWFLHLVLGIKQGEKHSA
Structures can show the parent of a compound that is named as a salt.

Example results:
- compound: "Cc1[nH]c(-c2cc(-c3cncc(N4CCOCC4)c3)ccn2)nc1C(=O)NC1C2CC3CC(C2)CC1C3 (stereo not drawn) [Example 278, trifluoroacetate salt]"
  reported_property: "IC50"
  assay_value: "≤ 50 nM"
- compound: "Cc1nc(-c2cc(-c3cncc(C(=O)NC(C)C)c3)ccn2)[nH]c1C [Example 157, trifluoroacetate salt]"
  reported_property: "IC50"
  assay_value: "≤ 100 nM"

With those in mind, consider the next compound.
Req: Query the reported IC50 for PI3Kγ (p110γ) Recombinant Human Protein (Homo sapiens (Human), UniProt P48736); item: O=C(O)c1ccc(Cn2cc(-c3ccnc(-c4ncc(-c5ccccc5)[nH]4)c3)cn2)cc1 [Example 35, trifluoroacetate salt]
Resp: ≤ 500 nM

###

target: PI3Kδ (p110δ/p85α) Recombinant Human Protein (Homo sapiens (Human), UniProt O00329); assay: PI3Kδ Scintillation Proximity Assay; conditions: read-out: PI3K-delta SPA IC50
Sequence (O00329 whole entry): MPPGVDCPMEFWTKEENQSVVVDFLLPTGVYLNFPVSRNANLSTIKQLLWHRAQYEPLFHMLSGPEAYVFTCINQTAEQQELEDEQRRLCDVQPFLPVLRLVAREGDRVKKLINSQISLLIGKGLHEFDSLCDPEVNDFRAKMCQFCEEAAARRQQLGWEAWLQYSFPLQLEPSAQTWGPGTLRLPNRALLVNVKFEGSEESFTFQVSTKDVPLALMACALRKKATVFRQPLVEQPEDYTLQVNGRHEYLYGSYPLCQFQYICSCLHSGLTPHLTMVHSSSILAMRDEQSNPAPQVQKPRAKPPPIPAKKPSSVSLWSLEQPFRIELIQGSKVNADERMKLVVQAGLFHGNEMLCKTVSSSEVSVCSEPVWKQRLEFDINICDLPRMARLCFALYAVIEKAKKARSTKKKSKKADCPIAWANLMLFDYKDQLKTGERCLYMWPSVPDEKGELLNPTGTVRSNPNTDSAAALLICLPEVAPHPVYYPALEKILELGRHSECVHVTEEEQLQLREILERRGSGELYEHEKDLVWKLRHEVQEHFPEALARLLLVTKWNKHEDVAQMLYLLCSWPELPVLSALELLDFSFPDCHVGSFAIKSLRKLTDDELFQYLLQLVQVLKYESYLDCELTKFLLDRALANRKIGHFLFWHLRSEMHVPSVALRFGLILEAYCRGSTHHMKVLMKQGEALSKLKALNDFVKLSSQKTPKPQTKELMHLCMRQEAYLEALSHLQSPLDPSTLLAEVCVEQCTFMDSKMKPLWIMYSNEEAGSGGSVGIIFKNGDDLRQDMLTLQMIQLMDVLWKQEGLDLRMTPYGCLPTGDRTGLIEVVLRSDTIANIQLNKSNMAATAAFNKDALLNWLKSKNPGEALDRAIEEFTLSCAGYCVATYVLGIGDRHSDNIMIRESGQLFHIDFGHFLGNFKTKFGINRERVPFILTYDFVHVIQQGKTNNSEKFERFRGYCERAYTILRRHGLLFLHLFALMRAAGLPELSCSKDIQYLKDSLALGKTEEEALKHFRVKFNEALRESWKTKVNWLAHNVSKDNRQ
Sequence (P27986 whole entry partner): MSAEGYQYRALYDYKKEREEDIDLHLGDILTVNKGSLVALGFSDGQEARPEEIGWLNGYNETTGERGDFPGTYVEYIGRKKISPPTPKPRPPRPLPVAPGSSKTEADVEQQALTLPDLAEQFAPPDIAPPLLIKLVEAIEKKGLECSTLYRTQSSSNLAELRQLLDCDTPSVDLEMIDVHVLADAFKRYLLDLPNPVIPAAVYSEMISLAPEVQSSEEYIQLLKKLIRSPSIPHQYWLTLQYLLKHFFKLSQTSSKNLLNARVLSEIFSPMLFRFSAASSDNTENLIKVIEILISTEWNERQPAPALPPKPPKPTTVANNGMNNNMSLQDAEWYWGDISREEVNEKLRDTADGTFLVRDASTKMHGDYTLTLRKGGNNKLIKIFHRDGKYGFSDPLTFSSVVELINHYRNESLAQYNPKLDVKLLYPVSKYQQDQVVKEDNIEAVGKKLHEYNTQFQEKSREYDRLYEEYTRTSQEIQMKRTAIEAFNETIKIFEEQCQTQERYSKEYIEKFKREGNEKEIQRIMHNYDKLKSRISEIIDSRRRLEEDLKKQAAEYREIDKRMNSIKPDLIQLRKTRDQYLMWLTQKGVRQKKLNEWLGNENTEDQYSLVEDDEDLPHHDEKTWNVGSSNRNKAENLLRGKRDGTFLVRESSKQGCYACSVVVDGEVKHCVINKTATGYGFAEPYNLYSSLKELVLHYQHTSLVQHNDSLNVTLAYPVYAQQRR
Counter-ions that a name gives are not always drawn.
reported_property: IC50

Example results:
- molecule: "CC(=O)N1CCC=C(c2ccnc(-c3nc(C)c(C)[nH]3)c2)C1 [Example 219, trifluoroacetate salt]"
  IC50: "> 500 nM"
- molecule: "Cc1[nH]c(-c2cc(-c3cncc(N4CCOCC4)c3)ccn2)nc1CCO"
  IC50: "≤ 50 nM"
- molecule: "Cc1nc(-c2cc(-c3cncc(C(=O)N(C)CC#N)c3)ccn2)[nH]c1C"
  IC50: "≤ 100 nM"
- molecule: "Cc1nc(-c2cc(-c3cncc(C(=O)N4CCC(c5ccccc5)CC4)c3)ccn2)[nH]c1C [Example 186, trifluoroacetate salt]"
  IC50: "≤ 50 nM"
- molecule: "Cc1nc(-c2cc(-c3cncc(S(C)(=O)=O)c3)ccn2)[nH]c1C [Example 108, trifluoroacetate salt]"
  IC50: "≤ 50 nM"
- molecule: "Cc1[nH]c(-c2cc(-c3cncc(S(C)(=O)=O)c3)ccn2)nc1C(=O)N1CC[C@@H](O)C1"
  IC50: "≤ 50 nM"
- molecule: "COc1ccccc1Nc1nc(-c2cc(-c3cncc(N4CCOCC4)c3)ccn2)[nH]c1C [Example 307, Trifluoroacetate Salt]"
  IC50: "≤ 50 nM"
- molecule: "CS(=O)(=O)N1CCC(c2c[nH]c(-c3cc(-c4cnn(Cc5ccc(Cl)cc5)c4)ccn3)n2)C1 (single isomer, unassigned) [Example 300, Trifluoroacetate Salt]"
  IC50: "≤ 500 nM"
- molecule: "COC1CCN(C(=O)c2cncc(-c3ccnc(-c4nc(C)c(C)[nH]4)c3)c2)C1 (racemic) [Example 174, trifluoroacetate salt]"
  IC50: "≤ 50 nM"
- molecule: "Cc1nc(-c2cc(-c3cncc(C(=O)N4C5CCC4CC5)c3)ccn2)[nH]c1C [Example 179, trifluoroacetate salt]"
  IC50: "≤ 100 nM"

Please give IC50 for each item listed below.
1. Cc1nc(-c2cc(-c3cncc(C(=O)NCC4CCOCC4)c3)ccn2)[nH]c1C [Example 162, trifluoroacetate salt]
2. Cc1cnc(-c2cc(-c3cncc(S(C)(=O)=O)c3)ccn2)[nH]1 [Example 107, trifluoroacetate salt]
3. COc1cncc(-c2ccnc(-c3nnc(-c4ccccc4)[nH]3)c2)c1
4. CN1CCC(Nc2cncc(-c3ccnc(-c4ncc(-c5ccccc5)[nH]4)c3)c2)CC1 [Example 143, trifluoroacetate salt]
5. Cc1nc(-c2cc(-c3cncc(NCC4CCOCC4)c3)ccn2)[nH]c1C
6. Cc1cnc(-c2cc(-c3cncc(S(=O)(=O)N[C@H]4CC[C@](C)(O)CC4)c3)ccn2)[nH]1 [Example 298, Trifluoroacetate Salt]
7. CC(=O)N1CC=C(c2ccnc(-c3nc(C)c(C)[nH]3)c2)C1 [Example 226, trifluoroacetate salt]

Resp:
["≤ 500 nM", "≤ 100 nM", "≤ 500 nM", "≤ 100 nM", "≤ 500 nM", "≤ 50 nM", "> 500 nM"]

Please give IC50 for each item listed below.
1. Cc1nc(-c2cc(-c3cncc(C(=O)N4CCC5(CC4)COC5)c3)ccn2)[nH]c1C [Example 165, trifluoroacetate salt]
2. c1ccc(-c2cnc(-c3cc(-c4cnn(CCN5CCOCC5)c4)ccn3)[nH]2)cc1 [Example 26, trifluoroacetate salt]
3. Cc1nc(-c2cc(-c3cncc(C(=O)N4CCC(=O)C4)c3)ccn2)[nH]c1C [Example 168, trifluoroacetate salt]
4. O=C(O)c1ccc(Cn2cc(-c3ccnc(-c4ncc(-c5ccccc5)[nH]4)c3)cn2)cc1 [Example 35, trifluoroacetate salt]
5. Cc1nc(-c2cc(-c3cncc(C4CCN(S(C)(=O)=O)C4)c3)ccn2)[nH]c1C (racemic)

Resp:
1. ≤ 100 nM
2. > 500 nM
3. ≤ 50 nM
4. ≤ 500 nM
5. ≤ 500 nM

Please give IC50 for each item listed below.
1. Cc1nc(-c2cc(-c3cncc(C(=O)N4CC[C@@H](F)C4)c3)ccn2)[nH]c1C [Example 155, trifluoroacetate salt]
2. O=C(O)c1ccccc1Cn1cc(-c2ccnc(-c3ncc(-c4ccccc4)[nH]3)c2)cn1 [Example 33, trifluoroacetate salt]
3. COCCNC(=O)c1cncc(-c2ccnc(-c3nc(C)c(C)[nH]3)c2)c1 [Example 166, trifluoroacetate salt]
4. Cc1nc(-c2cc(-c3cncc(C(=O)N4CCC4C(F)(F)F)c3)ccn2)[nH]c1C (racemic) [Example 184, trifluoroacetate salt]

Resp:
["≤ 50 nM", "≤ 500 nM", "≤ 50 nM", "≤ 50 nM"]

Please give IC50 for each item listed below.
1. Cc1nc(-c2cc(-c3cncc(C(=O)NC(C)(C)C)c3)ccn2)[nH]c1C [Example 208, trifluoroacetate salt]
2. Cc1nc(-c2cc(-c3cncc(Cl)c3)ccn2)[nH]c1C

Resp:
≤ 100 nM
≤ 100 nM

Hello, the source for this data is patent US11352340B2, in case you need it.
